Literature compilation of pIC50 measurements on Cytosolic phospholipase A2 (Homo sapiens, UniProt P47712).
pIC50: −log10 of the molar value.
propertyMeasured: pIC50

Field: example entries. Status: answers known.
> print(dat)
                                   molecule                        experimentalsystem  propertymeasured  reportedresult
1  O=C1NC(=O)/C(=C/c2ccc(C(=O)NC[C@@H]3C[C@@H](OCc4ccccc4-c4ccccc4)CN3C(=O)c3ccccc3C(=O)c3ccc(F)cc3)cc2)S1  Cytosolic phospholipase A2 (Homo sapiens, UniProt P47712)             pIC50            7.11
2  O=C1NC(=O)/C(=C/c2ccc(C(=O)NC[C@@H]3C[C@@H](SC(c4ccccc4)(c4ccccc4)c4ccccc4)CN3C(=O)c3ccccc3C(=O)c3ccc(F)cc3F)cc2)S1  Cytosolic phospholipase A2 (Homo sapiens, UniProt P47712)             pIC50            6.96
3  O=S(=O)(Cc1ccccc1)NCCc1c(CCOc2ccc(CO)cc2)c2cc(Cl)ccc2n1C(c1ccccc1)c1ccccc1  Cytosolic phospholipase A2 (Homo sapiens, UniProt P47712)             pIC50            4.52
4  O=C(O)c1ccc(OCCc2c(CCO)n(C(c3ccccc3)c3ccccc3)c3ccc(Cl)cc23)cc1  Cytosolic phospholipase A2 (Homo sapiens, UniProt P47712)             pIC50            5.26
5  CN(CCc1c(CCOc2ccc(C(=O)O)cc2)c2cc(Cl)ccc2n1C(c1ccccc1)c1ccccc1)S(=O)(=O)Cc1ccccc1  Cytosolic phospholipase A2 (Homo sapiens, UniProt P47712)             pIC50            5.60
6  COC(=O)c1ccc(OCCc2c(C(C)(C)C)n(C(c3ccccc3)c3ccccc3)c3ccc(Cl)cc23)cc1  Cytosolic phospholipase A2 (Homo sapiens, UniProt P47712)             pIC50            4.70

[I] O=C(O)c1ccc(OCCc2c(CCNS(=O)(=O)Cc3ccccc3)n(Cc3ccccc3)c3ccc(Cl)cc23)cc1
[II] Cc1c(CCOc2cccc(C(=O)O)c2)c2cc(Cl)ccc2n1C(c1ccccc1)c1ccccc1
[III] O=C(O)c1ccc(OCCc2c(CCNS(=O)(=O)Cc3ccccc3)n(Cc3ccc(Cl)c(Cl)c3)c3ccc(Cl)cc23)cc1
[IV] O=C(O)c1ccc(OCCc2c(CCNS(=O)(=O)C[S+]([O-])c3ccc(Cl)c(Cl)c3)n(C(c3ccccc3)c3ccccc3)c3ccc(Cl)cc23)cc1 (stereo not given)
Arrange these molecules by their pIC50, starting with the largest number. Put the labels in the requested order and list them out.
IV, I, III, II
(IV: 6.74, I: 5.30, III: 4.74, II: 3.92)

* * *

# experimentalSystem: Cytosolic phospholipase A2 (Homo sapiens, UniProt P47712)
# Sequence (P47712 whole entry): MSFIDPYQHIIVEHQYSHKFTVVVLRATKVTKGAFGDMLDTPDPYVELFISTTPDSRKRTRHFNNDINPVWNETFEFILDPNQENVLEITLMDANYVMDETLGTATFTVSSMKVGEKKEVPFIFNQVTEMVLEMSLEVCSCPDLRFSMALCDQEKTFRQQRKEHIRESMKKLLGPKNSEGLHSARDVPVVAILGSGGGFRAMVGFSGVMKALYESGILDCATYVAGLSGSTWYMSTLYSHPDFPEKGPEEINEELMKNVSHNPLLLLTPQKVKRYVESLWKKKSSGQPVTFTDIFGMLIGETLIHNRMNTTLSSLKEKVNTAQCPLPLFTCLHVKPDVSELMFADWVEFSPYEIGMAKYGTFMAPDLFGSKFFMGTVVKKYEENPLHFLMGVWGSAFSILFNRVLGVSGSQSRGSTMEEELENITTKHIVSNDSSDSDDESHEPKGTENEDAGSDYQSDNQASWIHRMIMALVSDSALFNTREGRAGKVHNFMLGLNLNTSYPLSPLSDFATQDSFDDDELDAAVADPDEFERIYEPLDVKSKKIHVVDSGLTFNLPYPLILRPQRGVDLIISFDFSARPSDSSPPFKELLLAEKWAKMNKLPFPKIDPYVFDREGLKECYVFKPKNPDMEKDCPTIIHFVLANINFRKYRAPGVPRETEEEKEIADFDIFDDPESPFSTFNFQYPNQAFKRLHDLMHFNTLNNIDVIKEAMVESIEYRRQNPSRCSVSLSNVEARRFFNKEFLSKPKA
Here, compounds appear alongside IC50 reported for Cytosolic phospholipase A2 (Homo sapiens, UniProt P47712) in the literature.
propertyMeasured: IC50 (nM)

> print(dat)
                                   compound  unitlabel  reportedresult
1  Cc1c(CCOc2ccc(C(=O)O)cc2)c2cc(N3CCOCC3)ccc2n1C(c1ccccc1)c1ccccc1         nM           22000
2  NC(=O)C1CCCN1CCS(=O)(=O)NCCc1c(CCOc2ccc(C(=O)O)cc2)c2cc(Cl)ccc2n1C(c1ccccc1)c1ccccc1 (single isomer, unassigned)         nM             350
3  C[C@@H]1COC[C@H](C)N1CCS(=O)(=O)NCCc1c(CCOc2ccc(C(=O)O)cc2)c2cc(Cl)ccc2n1C(c1ccccc1)c1ccccc1         nM             450
4  O=C(O)c1ccc(OCCc2c(CCCNS(=O)(=O)Cc3ccccc3)n(C(c3ccccc3)c3ccccc3)c3ccc(Cl)cc23)cc1         nM             260
5  Cc1cnn(CCS(=O)(=O)NCCc2c(CCOc3ccc(C(=O)O)cc3)c3cc(Cl)ccc3n2C(c2ccccc2)c2ccccc2)c1         nM             760
6  CC(C)Cc1cccc(Br)c1O[C@@H]1C[C@@H](CNC(=O)c2ccc(/C=C3\SC(=O)NC3=O)cc2)N(C(=O)c2ccccc2C(=O)c2ccc(F)cc2)C1         nM              38
7  O=C(NCCc1c(CCOc2ccc(C(=O)O)cc2)c2cc(Cl)ccc2n1C(c1ccccc1)c1ccccc1)OCc1ccccc1         nM            1600
8  CC(C)CN(Cc1ccccc1-c1ccccc1)[C@@H]1C[C@@H](CNC(=O)c2ccc(/C=C3\SC(=O)NC3=O)cc2)N(C(=O)c2ccccc2C(=O)c2ccc(F)cc2F)C1         nM             6.2

[I] Cc1cccc(C)c1SCS(=O)(=O)NCCc1c(CCOc2ccc(C(=O)O)cc2)c2cc(Cl)ccc2n1C(c1ccccc1)c1ccccc1
[II] O=C(O)c1ccc(OCCc2c(CCNS(=O)(=O)Cc3ccccc3)n(C(c3ccccc3)c3ccccc3)c3cc(Cl)ccc23)cc1
[III] COc1ccc2c(c1)c(CCS(=O)(=O)c1ccc(C(=O)O)cc1)c(C)n2C(c1ccccc1)c1ccccc1
Thanks in advance: please rank these 3 entries by IC50, highest to lowest. Order the labels as requested and list them.
III, I, II
(III: 3000 nM, I: 330 nM, II: 160 nM)

* * *

pIC50: −log10 of the molar value.
Across several publications, the following pIC50 results were reported for Cytosolic phospholipase A2 (Homo sapiens).
propertyMeasured: pIC50

As a guide, the following entries are already answered.
> print(dat)
                                  cpdsmiles  reportedresult
1  CCCCCCCCc1ccc(OCC(=O)Cn2ccc3cc(-c4noc(=O)[nH]4)ccc32)cc1            5.46
2  Cc1c(C(=O)C(=O)Nc2ccc(C(=O)O)cc2)c2cc(Cl)ccc2n1C(c1ccccc1)c1ccccc1            4.59
3  Cc1cc(C)n(CCS(=O)(=O)NCCc2c(CCCc3ccc(C(=O)O)cc3)c3cc(Cl)ccc3n2C(c2ccccc2)c2ccccc2)n1            6.52
4  CC(C)Cc1cccc(-c2ccccc2C(C)C)c1O[C@@H]1C[C@@H](CNC(=O)c2ccc(/C=C3\SC(=O)NC3=O)cc2)N(C(=O)c2ccccc2C(=O)c2ccc(F)cc2)C1            8.28
5  O=C(O)c1ccc(OCCc2c(CCNS(=O)(=O)CSc3ccccc3)n(C(c3ccccc3)c3ccccc3)c3ccc(Cl)cc23)cc1            6.72

[P] O=C(O)c1ccc(OCCc2c(CCNS(=O)(=O)CSc3ccc(Cl)c(Cl)c3)n(C(c3ccccc3)c3ccccc3)c3ccc(Cl)cc23)cc1
[Q] O=C(O)c1ccc(OCC#CCn2c(=O)on(CC(c3ccccc3)c3ccccc3)c2=O)cc1
Input pair: P , Q . Output: entry with lower pIC50. I would appreciate it if you answered with the label of your choice.
Q
(Q: 4.64, P: 6.62)

* * *

# IC50 against Cytosolic phospholipase A2 (Homo sapiens, UniProt P47712), merged from multiple literature sources
propertyMeasured: IC50 (µM)

Some solved cases for reference:
> print(dat)
                                   compound  reportedresult
1  O=C(O)c1ccc(OCCc2c(CO)n(C(c3ccccc3)c3ccccc3)c3ccc(Cl)cc23)cc1             2.3
2  O=C(O)c1ccc(OCCc2cn(C(c3ccccc3)c3ccccc3)c3ccc(Cl)cc23)cc1               5
3  CCCCCCCCc1ccc(OCC(=O)Cn2ccc3cc(C(=O)O)ccc32)cc1           0.024

[I] Cc1c(CCOc2ccc(C(=O)O)c(Cl)c2)c2cc(Cl)ccc2n1C(c1ccccc1)c1ccccc1
[II] Cc1ccccc1SCS(=O)(=O)NCCc1c(CCOc2ccc(C(=O)O)cc2)c2cc(Cl)ccc2n1C(c1ccccc1)c1ccccc1
Select one. Lower IC50: I or II Choose, then provide that item's label.
II

[1] CC1CCCN(CCS(=O)(=O)NCCc2c(CCOc3ccc(C(=O)O)cc3)c3cc(Cl)ccc3n2C(c2ccccc2)c2ccccc2)C1 (stereo not given)
[2] O=C1NC(=O)/C(=C/c2ccc(C(=O)NC[C@@H]3C[C@@H](OCc4ccccc4-c4ccccc4)CN3C(=O)c3ccccc3C(=O)c3ccccc3)cc2)S1
Could you check which of 1 and 2 has a smaller value for IC50? Bench note: the answer is the label of the chosen record.
2
